Value source: patent US20130204033A1

Test system: NCI-H460
Experiment: ATP luminescence proliferation assay, NCI-H460
Assay type: cell-based, human
Details: ATP luminescence, NCI-H460, 72 h incubation; read-out: EC50 NCI-H460 (72 h)
pEC50: −log10 of the molar value.
# pEC50 per record follows

# compound, system-under-test, pEC50
measured = [
    ("CC[C@H](C)[C@H](NC(=O)[C@H]1CCCCN1C)C(=O)N(COC(=O)CC(C)C)[C@H](C[C@@H](OC(C)=O)c1nc(C(=O)N[C@@H](Cc2ccccc2)C[C@H](C)C(=O)O)cs1)C(C)C [Tub D, tubulysin D, reference compound]", "NCI-H460", 11.12),
    ("CCC[C@H](NC(=O)[C@H](Cc1ccccc1)NC(=O)c1csc([C@@H](C[C@H](C(C)C)N(C)C(=O)[C@@H](NC(=O)[C@H]2CCCCN2C)[C@@H](C)CC)OC)n1)C(=O)OC", "NCI-H460", 7.37),
    ("CC[C@H](C)[C@H](NC(=O)[C@H]1CCCCN1C)C(=O)N(COC)[C@H](C[C@@H](OC)c1nc(C(=O)N[C@@H](Cc2ccccc2)C(=O)OC)cs1)C(C)C [Compound 29c]", "NCI-H460", 8.22),
]

----------
Test system: BT474
Assay: 3H thymidine proliferation assay, BT474
Type: cell-based, human
Settings: Homo sapiens, BT-474; 3H thymidine method, 72 h incubation; read-out: EC50, BT474
assay-endpoint: EC50 (nM)

# compound, numeric-result
records = [
    ("Nc1ccc(C(=O)Nc2ccc3[nH]c(C(=O)N4C[C@@H](CCl)c5c4cc(O)c4ccccc54)cc3c2)cc1 [CBI, reference compound]", 1.2),
    ("COc1cccc2c1C(=O)c1c(O)c3c(c(O)c1C2=O)C[C@@](O)(C(=O)CO)C[C@@H]3O[C@H]1C[C@H](N)[C@H](O)[C@H](C)O1 [Dox, doxorubicin, reference compound]", 424),
]

----------
System: DMS53
Assay: ATP luminescence proliferation assay, DMS53
Type: cell-based, human
Details: Homo sapiens, DMS-53; ATP luminescence, DMS53, 72 h incubation; read-out: EC50 DMS53 (72 h)
pEC50: −log10 of the molar value.
# pEC50 per record follows

# molecule, pEC50
measured = [
    ("COc1cccc2c1C(=O)c1c(O)c3c(c(O)c1C2=O)C[C@@](O)(C(=O)CO)C[C@@H]3O[C@H]1C[C@H](N)[C@H](O)[C@H](C)O1 [Dox, doxorubicin, reference compound]", 6.12),
    ("Nc1ccc(C(=O)Nc2ccc3[nH]c(C(=O)N4C[C@@H](CCl)c5c4cc(O)c4ccccc54)cc3c2)cc1 [CBI, reference compound]", 8.42),
]

----------
System: PC3
Experiment: ATP luminescence proliferation assay, PC3
Type: cell-based, human
Details: Homo sapiens, PC-3, 48 h, read-out: EC50 PC3 (48 h), ATP luminescence, PC3, 48 h incubation
Description: This example generally describes the procedures used to assay the antiproliferative activity of compounds of this invention or their conjugates. […] The ^3H thymidine plates were pulsed with 1.0 μCi of ^3H-thymidine per well for the last 24 hours of the total incubation period, harvested, and read on a Top Count Scintillation Counter (Packard Instruments, Meriden, Conn.). […] Table 3 provides the data for the ATP luminescence proliferation assays, with an incubation period of 48, 72, or 96 h, as noted.
# EC50 per record follows

# compound, EC50
records = [
    ("CC[C@H](C)[C@H](NC(=O)[C@H]1CCCCN1C)C(=O)N(C)[C@H](C[C@@H](OC(C)=O)c1nc(C(=O)N[C@@H](Cc2ccc(N)cc2)CC(C)C(=O)O)cs1)C(C)C (stereo partly shown) [Compound 36]", "78 nM"),
    ("CC[C@H](C)[C@H](NC(=O)[C@H]1CCCCN1C)C(=O)N(C)[C@H](C[C@@H](OC)c1nc(C(=O)N[C@@H](Cc2ccccc2)C(=O)N[C@@H](C)C(=O)OC)cs1)C(C)C [Compound 24]", "13 nM"),
    ("CC[C@H](C)[C@H](NC(=O)[C@H]1CCCCN1C)C(=O)N(C)[C@H](C[C@@H](OC)c1nc(C(=O)N[C@H](CCC(=O)OC)Cc2ccccc2)cs1)C(C)C [Compound 26]", "> 3000 nM"),
    ("CC[C@H](C)[C@H](NC(=O)[C@H]1CCCCN1C)C(=O)N(C)[C@H](C[C@@H](OC)c1nc(C(=O)NC(Cc2ccccc2)C[C@H](C)C(=O)O)cs1)C(C)C (stereo partly shown) [Compound 15]", "> 100 nM"),
    ("CCCC(NC(=O)c1csc([C@@H](C[C@H](C(C)C)N(C)C(=O)[C@@H](NC(=O)[C@H]2CCCCN2C)[C@@H](C)CC)OC)n1)C(=O)OC (stereo partly shown) [Compound 17]", "> 100 nM"),
    ("CC[C@H](C)[C@H](NC(=O)[C@H]1CCCCN1C)C(=O)N(C)[C@H](C[C@@H](OC)c1nc(C(=O)N[C@H](CC(=O)OC)Cc2ccccc2)cs1)C(C)C [Compound 25]", "155 nM"),
    ("CC[C@H](C)[C@H](NC(=O)[C@H]1CCCCN1C)C(=O)N(COC(=O)CC(C)C)[C@H](C[C@@H](OC(C)=O)c1nc(C(=O)N[C@@H](Cc2ccc(N)cc2)CC(C)C(=O)O)cs1)C(C)C (stereo partly shown) [Compound 54]", "3.1 nM"),
]
